Origin of values: patent US20180044434A1

- TARGET OR SYSTEM: T1, full-length recombinant human PAD4 (human, UniProt Q9UM07 1-663)
- T1 construct: Full-length recombinant; also called peptidylarginine deiminase 4
- T1 sequence (Q9UM07 whole entry): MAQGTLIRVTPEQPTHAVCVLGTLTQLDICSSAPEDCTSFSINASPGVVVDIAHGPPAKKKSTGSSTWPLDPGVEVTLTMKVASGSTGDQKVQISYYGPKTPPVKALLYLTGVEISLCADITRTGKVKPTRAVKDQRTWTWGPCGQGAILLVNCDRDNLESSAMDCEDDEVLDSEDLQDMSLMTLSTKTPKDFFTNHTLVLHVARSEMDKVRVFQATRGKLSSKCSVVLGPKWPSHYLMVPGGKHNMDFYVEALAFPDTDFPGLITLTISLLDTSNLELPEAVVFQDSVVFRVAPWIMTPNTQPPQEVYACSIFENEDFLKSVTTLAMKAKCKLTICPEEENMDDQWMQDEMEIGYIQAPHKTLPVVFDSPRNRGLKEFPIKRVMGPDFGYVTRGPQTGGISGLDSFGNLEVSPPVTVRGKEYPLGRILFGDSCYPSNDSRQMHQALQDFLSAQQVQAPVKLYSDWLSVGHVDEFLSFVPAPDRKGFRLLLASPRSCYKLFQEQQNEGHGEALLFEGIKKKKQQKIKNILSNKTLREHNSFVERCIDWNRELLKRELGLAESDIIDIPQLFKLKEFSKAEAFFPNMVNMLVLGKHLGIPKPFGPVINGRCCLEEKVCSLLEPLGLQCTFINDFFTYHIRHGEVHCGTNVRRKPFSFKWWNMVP
- PROCEDURE SUMMARY: ELISA, coated human PAD4; antibody 0.0625 ug/mL
QUANTITY MEASURED: OD 490/630 nm
Respond using a number only.

Worked set:
G9 (antibody, V domains shown, Chicken variable regions in a mouse chimeric antibody (IgG1); also called anti-PAD4 antibody G9) VH: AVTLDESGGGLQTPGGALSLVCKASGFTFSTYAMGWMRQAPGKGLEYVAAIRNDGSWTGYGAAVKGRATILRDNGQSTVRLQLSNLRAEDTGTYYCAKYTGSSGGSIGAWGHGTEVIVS VL: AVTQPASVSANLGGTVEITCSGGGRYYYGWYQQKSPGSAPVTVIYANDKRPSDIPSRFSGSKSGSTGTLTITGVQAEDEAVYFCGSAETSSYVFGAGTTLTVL    2.11
G8 (antibody, V domains shown, Chicken variable regions in a mouse chimeric antibody (IgG1); also called anti-PAD4 antibody G8) VH: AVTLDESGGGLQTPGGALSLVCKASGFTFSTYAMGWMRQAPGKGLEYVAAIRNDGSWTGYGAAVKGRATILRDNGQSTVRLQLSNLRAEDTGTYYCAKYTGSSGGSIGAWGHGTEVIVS VL: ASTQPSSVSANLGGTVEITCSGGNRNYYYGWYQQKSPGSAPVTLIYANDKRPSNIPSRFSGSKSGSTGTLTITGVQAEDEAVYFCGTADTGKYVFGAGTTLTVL    2.12

Please look at the following binder next.
Quick note, OD 490/630 nm for A11 (antibody, V domains shown, Chicken variable regions in a mouse chimeric antibody (IgG1); also called anti-PAD4 antibody A11) VH: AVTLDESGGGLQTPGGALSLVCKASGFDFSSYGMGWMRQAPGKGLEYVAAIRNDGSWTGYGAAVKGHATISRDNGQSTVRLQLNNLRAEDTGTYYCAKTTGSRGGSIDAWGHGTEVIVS VL: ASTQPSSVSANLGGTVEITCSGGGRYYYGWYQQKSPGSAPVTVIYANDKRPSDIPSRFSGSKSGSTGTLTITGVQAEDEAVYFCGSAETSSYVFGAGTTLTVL landed at 2.15
